test: Resistance to adenosine deaminase; assay type: in vitro ADME, calf; settings: bovine, 20 min., pH 7.2, 25° C., read-out: Remaining Amount (%)
Assignment: determine reported remaining at 20 min, 500 µM for the given compounds.
Give just the number in %; leave the unit off.

Prompt: Report remaining at 20 min, 500 µM for Nc1ncnc2c1ncn2[C@@H]1C=C(CO)[C@@H](O)[C@H]1O
Completion: 0.4

Prompt: Report remaining at 20 min, 500 µM for Nc1ncnc2c1ncn2C1C=C(CF)C(O)C1O (centres unmarked)
Completion: 98

Prompt: Report remaining at 20 min, 500 µM for Nc1ncnc2c1ncn2C1C=C(CI)C(O)C1O (centres unmarked)
Completion: 96

Prompt: Report remaining at 20 min, 500 µM for Nc1ncnc2c1ncn2C1C=C(CBr)C(O)C1O (centres unmarked)
Completion: 97

Prompt: Report remaining at 20 min, 500 µM for Nc1ncnc2c1ncn2C1C=C(CCl)C(O)C1O (centres unmarked)
Completion: 99

###

test: Resistance to adenosine deaminase; assay type: in vitro ADME, calf; conditions: bovine, 10 min., pH 7.2, 25° C., read-out: Remaining Amount (%)
measurement-label: remaining at 10 min, 500 µM (%)
Give just the number in %; leave the unit off.

Prompt: Report remaining at 10 min, 500 µM for Nc1ncnc2c1ncn2C1C=C(CF)C(O)C1O (centres unmarked)
Completion: 99

Prompt: Report remaining at 10 min, 500 µM for Nc1ncnc2c1ncn2C1C=C(CI)C(O)C1O (centres unmarked)
Completion: 97

Prompt: Report remaining at 10 min, 500 µM for Nc1ncnc2c1ncn2C1C=C(CCl)C(O)C1O (centres unmarked)
Completion: 101

Prompt: Report remaining at 10 min, 500 µM for Nc1ncnc2c1ncn2C1C=C(CBr)C(O)C1O (centres unmarked)
Completion: 98

Prompt: Report remaining at 10 min, 500 µM for Nc1ncnc2c1ncn2[C@@H]1C=C(CO)[C@@H](O)[C@H]1O
Completion: 6

###

system: L5178Y cells; assay: Growth inhibition activity against L5178Y cells; type: cell-based; conditions: Mus musculus, 48 hours, 37° C.
measurement-label: IC50 (µg/mL)
Give just the number in µg/mL; leave the unit off.

Prompt: Report IC50 for Nc1ncnc2c1ncn2C1C=C(CI)C(O)C1O (centres unmarked) [Compound (1) X = I, 6'-deoxy-6'-iodoneplanocin A]
Completion: 0.4

Prompt: Report IC50 for Nc1ncnc2c1ncn2C1C=C(CCl)C(O)C1O (centres unmarked) [Compound (1) X = Cl, 6'-deoxy-6'-chloroneplanocin A]
Completion: 0.3

Prompt: Report IC50 for Nc1ncnc2c1ncn2C1C=C(CBr)C(O)C1O (centres unmarked) [Compound (1) X = Br, 6'-deoxy-6'-bromoneplanocin A]
Completion: 0.2

Prompt: Report IC50 for Nc1ncnc2c1ncn2[C@@H]1C=C(CO)[C@@H](O)[C@H]1O [Neplanocin A]
Completion: 0.2

Prompt: Report IC50 for Nc1ncnc2c1ncn2C1C=C(CF)C(O)C1O (centres unmarked) [Compound (1) X = F, 6'-deoxy-6'-fluoroneplanocin A]
Completion: 1.1

###

Assignment: determine reported remaining at 0.5 h, 500 µM for the given compounds.
assay: Resistance to adenosine deaminase; assay type: in vitro ADME, calf; details: bovine, 30 min., pH 7.2, 25° C., read-out: Remaining Amount (%)
Give just the number in %; leave the unit off.

Prompt: Report remaining at 0.5 h, 500 µM for Nc1ncnc2c1ncn2[C@@H]1C=C(CO)[C@@H](O)[C@H]1O
Completion: 0

Prompt: Report remaining at 0.5 h, 500 µM for Nc1ncnc2c1ncn2C1C=C(CBr)C(O)C1O (centres unmarked)
Completion: 97

Prompt: Report remaining at 0.5 h, 500 µM for Nc1ncnc2c1ncn2C1C=C(CF)C(O)C1O (centres unmarked)
Completion: 98

Prompt: Report remaining at 0.5 h, 500 µM for Nc1ncnc2c1ncn2C1C=C(CCl)C(O)C1O (centres unmarked)
Completion: 102

Prompt: Report remaining at 0.5 h, 500 µM for Nc1ncnc2c1ncn2C1C=C(CI)C(O)C1O (centres unmarked)
Completion: 96
